Examples of compounds with documented mCherry-positive rate follow.
Tested on: mouse long-term hematopoietic stem cells
Assay: Reproducibility and concentration dependence test: 1-week culture of sorted Hoxb5-tri-mCherry mouse long-term hematopoietic stem cells, flow cytometry
Type: cell-based
Settings: Table 4; compound 0.1 μM; day 7 of culture; n=2

Compound	Units of measure	mCherry-positive rate
CS[C@@H]1O[C@@H]2O[C@@]3(C)CC[C@H]4[C@H](C)CC[C@@H]([C@H]1C)[C@@]24OO3	%	8.0
C[C@H]1[C@H](n2cc(-c3ccccc3)nn2)O[C@@H]2O[C@@]3(C)CC[C@H]4[C@H](C)CC[C@@H]1[C@@]24OO3	%	5.9
C[C@H]1[C@H](OC(=O)CCC(=O)O)O[C@@H]2O[C@@]3(C)CC[C@H]4[C@H](C)CC[C@@H]1[C@@]24OO3 [Example 1-32, artesunate, reference compound]	%	9.4

====

Examples of molecules with documented Colony count (colony) after culture (CFU-GEMM) follow.
System: human hematopoietic stem cells (CD34-positive cells)
Test: Functional test with human cells: colony assay (CFU-GEMM) after culture
Assay type: cell-based
Details: compound 0.1 μM; 1 week culture then 2 weeks MethoCult H4435; no UM171
Experimental: Each of artemether and the compounds of Example 1-23, Example 1-16, and Example 1-7 was prepared with the cell culture medium at nine final concentrations (0.001 μM, 0.003 μM, 0.01 μM, 0.03 μM, 0.1 μM, 0.3 μM, 1 μM, 3 μM, 10 μM), and added to the above human cells seeded after classification to a final volume of 200 μL/well to act thereon. UM171 (35 nM) was added to some of them to examine the presence or absence of synergistic effect. […]
Endpoint label: Colony count (colony) after culture (CFU-GEMM)

> print(dat)
                                   molecule  value.reported
1  C[C@H]1[C@H](C(N)=O)O[C@@H]2O[C@@]3(C)CC[C@H]4[C@H](C)CC[C@@H]1[C@@]24OO3 [Example 1-16]            40.6
2  C[C@H]1[C@H](c2ccco2)O[C@@H]2O[C@@]3(C)CC[C@H]4[C@H](C)CC[C@@H]1[C@@]24OO3 [Example 1-7]            64.1
3  COCCO[C@H]1O[C@@H]2O[C@@]3(C)CC[C@H]4[C@H](C)CC[C@@H]([C@H]1C)[C@@]24OO3 [Example 1-23]            13.4
4  CO[C@H]1O[C@@H]2O[C@@]3(C)CC[C@H]4[C@H](C)CC[C@@H]([C@H]1C)[C@@]24OO3 [Example 1-30, artemether, reference compound]            37.0

====

Examples of compounds with documented mCherry-positive rate follow.
Tested on: mouse long-term hematopoietic stem cells
Test: Reproducibility and concentration dependence test: 1-week culture of sorted Hoxb5-tri-mCherry mouse long-term hematopoietic stem cells, flow cytometry
Type: cell-based
Conditions: Table 4; compound 10 μM; day 7 of culture; n=2
Endpoint label: mCherry-positive rate (%)

> print(dat)
                                    compound  value.reported
 1  C[C@H]1[C@H](C(N)=O)O[C@@H]2O[C@@]3(C)CC[C@H]4[C@H](C)CC[C@@H]1[C@@]24OO3            99.0
 2  CC1=CO[C@@H]2O[C@@]3(C)CC[C@H]4[C@H](C)CC[C@@H]1[C@@]24OO3            96.4
 3  C[C@H]1[C@@H](Oc2ccccc2)O[C@@H]2O[C@@]3(C)CC[C@H]4[C@H](C)CC[C@@H]1[C@@]24OO3            50.0
 4  C[C@H]1[C@@H](C(N)=O)O[C@@H]2O[C@@]3(C)CC[C@H]4[C@H](C)CC[C@@H]1[C@@]24OO3            97.6
 5  CC(=O)O[C@@H]1O[C@@H]2O[C@@]3(C)CC[C@H]4[C@H](C)CC[C@@H]([C@H]1C)[C@@]24OO3             0.0
 6  CS[C@H]1O[C@@H]2O[C@@]3(C)CC[C@H]4[C@H](C)CC[C@@H]([C@H]1C)[C@@]24OO3            90.9
 7  C[C@H]1[C@H](S(C)(=O)=O)O[C@@H]2O[C@@]3(C)CC[C@H]4[C@H](C)CC[C@@H]1[C@@]24OO3             0.0
 8  C[C@H]1[C@H](CN)O[C@@H]2O[C@@]3(C)CC[C@H]4[C@H](C)CC[C@@H]1[C@@]24OO3            98.6
 9  C[C@@H]1CC[C@H]2[C@@H](C)C(=O)O[C@@H]3O[C@@]4(C)CC[C@@H]1[C@]32OO4 [Example 1-33, artemisinin, reference compound]            78.8
10  CC(=O)OCCO[C@@H]1O[C@@H]2O[C@@]3(C)CC[C@H]4[C@H](C)CC[C@@H]([C@H]1C)[C@@]24OO3           100.0
11  C[C@@H]1CC[C@H]2[C@@H](C)C(=O)O[C@@H]3O[C@@]4(C)CC[C@@H]1[C@]32O4             0.4
12  C[C@H]1[C@H](NS(C)(=O)=O)O[C@@H]2O[C@@]3(C)CC[C@H]4[C@H](C)CC[C@@H]1[C@@]24OO3           100.0
13  C[C@H]1[C@H](c2ccco2)O[C@@H]2O[C@@]3(C)CC[C@H]4[C@H](C)CC[C@@H]1[C@@]24OO3             0.0

====

Tested on: mouse long-term hematopoietic stem cells
Experiment: Reproducibility and concentration dependence test: 1-week culture of sorted Hoxb5-tri-mCherry mouse long-term hematopoietic stem cells, flow cytometry
Format: cell-based
Details: Table 3; compound 3 μM; day 7 of culture; n=2
From the text: Mice with insertion of a nucleic acid sequence containing three copies of a gene encoding the fluorescent protein mCherry to the C terminus of the mouse endogenous HoxB5 gene (Hoxb5-tri-mCherry) were used (triple-mCherry Hoxb5 knock-in mice; Non Patent Literature 1). […]
Endpoint label: KLS-positive rate

Molecule	Value reported
CCO[C@H]1O[C@@H]2O[C@@]3(C)CC[C@H]4[C@H](C)CC[C@@H]([C@H]1C)[C@@]24OO3 [Example 1-31, artemotil, reference compound]	66.65%
C[C@H]1[C@@H](O)O[C@@H]2O[C@@]3(C)CC[C@H]4[C@H](C)CC[C@@H]1[C@@]24OO3 [Example 1-29, artenimol, reference compound]	0%
CO[C@H]1O[C@@H]2O[C@@]3(C)CC[C@H]4[C@H](C)CC[C@@H]([C@H]1C)[C@@]24OO3 [Example 1-30, artemether, reference compound]	50.3%
C[C@@H]1CC[C@H]2[C@@H](C)C(=O)O[C@@H]3O[C@@]4(C)CC[C@@H]1[C@]32OO4 [Example 1-33, artemisinin, reference compound]	50.8%
C[C@H]1[C@H](OC(=O)CCC(=O)O)O[C@@H]2O[C@@]3(C)CC[C@H]4[C@H](C)CC[C@@H]1[C@@]24OO3 [Example 1-32, artesunate, reference compound]	0%

====

Examples of compounds with documented mCherry-positive rate follow.
System: mouse long-term hematopoietic stem cells
Assay: Reproducibility and concentration dependence test: 1-week culture of sorted Hoxb5-tri-mCherry mouse long-term hematopoietic stem cells, flow cytometry
Type: cell-based
Details: Table 4; compound 0.3 μM; day 7 of culture; n=2
Endpoint label: mCherry-positive rate (%)

> print(dat)
                                   compound                                       tgt  value.reported
1  CS[C@H]1O[C@@H]2O[C@@]3(C)CC[C@H]4[C@H](C)CC[C@@H]([C@H]1C)[C@@]24OO3 [Example 1-4]  mouse long-term hematopoietic stem cells            44.7
2  CC(=O)O[C@@H]1O[C@@H]2O[C@@]3(C)CC[C@H]4[C@H](C)CC[C@@H]([C@H]1C)[C@@]24OO3 [Example 1-14]  mouse long-term hematopoietic stem cells             9.0
3  CS[C@@H]1O[C@@H]2O[C@@]3(C)CC[C@H]4[C@H](C)CC[C@@H]([C@H]1C)[C@@]24OO3 [Example 1-3]  mouse long-term hematopoietic stem cells             4.7
4  C[C@H]1[C@@H](C)O[C@@H]2O[C@@]3(C)CC[C@H]4[C@H](C)CC[C@@H]1[C@@]24OO3 [Example 1-6]  mouse long-term hematopoietic stem cells            15.6
5  C[C@H]1[C@@H](O)O[C@@H]2O[C@@]3(C)CC[C@H]4[C@H](C)CC[C@@H]1[C@@]24OO3 [Example 1-29, artenimol, reference compound]  mouse long-term hematopoietic stem cells             6.0
6  C[C@H]1[C@@H](c2ccccc2)O[C@@H]2O[C@@]3(C)CC[C@H]4[C@H](C)CC[C@@H]1[C@@]24OO3 [Example 1-2]  mouse long-term hematopoietic stem cells            50.0
